Biological target: T1, Cynomolgus TNFR2-His (Sino 90102-C08H) (cynomolgus monkey, UniProt A0A2K5VET2 132-366)
T1 construct: Bought protein; also called cynomolgus monkey TNFR2; recombinant cynomolgus monkey TNFR2 protein; not shown: His tag
T1 sequence: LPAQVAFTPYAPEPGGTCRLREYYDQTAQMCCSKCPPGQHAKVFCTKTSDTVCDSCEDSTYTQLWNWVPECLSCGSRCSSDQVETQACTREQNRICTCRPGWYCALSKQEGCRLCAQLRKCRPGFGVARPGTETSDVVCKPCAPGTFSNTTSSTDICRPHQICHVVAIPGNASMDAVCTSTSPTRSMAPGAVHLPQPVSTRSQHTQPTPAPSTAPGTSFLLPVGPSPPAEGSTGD
Experiment: ELISA, cynomolgus TNFR2-His coated; EC50 against 219-WT
Answer each item with its documented % Relative activity (WT antibody/test antibody).
Note: unit % is implicit; provide only the numeric part.

**Q:** I'd like to know its % Relative activity (WT antibody/test antibody). The binder in question is 219-Hu5 (antibody, V domains shown, also called VH7 + VL5) VH: QVQLVQSGAEVKKPGSSVKVSCKASGYSFTNYWMNWVRQAPGQGLEWMGMIHPSDTETRLNQNFKDRVTITVDKSTSTAYMELSSLRSEDTAVYYCARGEGLGAARSVSMDYWGQGTLVTVSS VL: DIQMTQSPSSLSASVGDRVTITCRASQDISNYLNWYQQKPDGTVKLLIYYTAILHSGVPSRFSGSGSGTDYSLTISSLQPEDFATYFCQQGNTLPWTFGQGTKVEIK
**A:** 93.4

**Q:** I'd like to know its % Relative activity (WT antibody/test antibody). The binder in question is 219-Hu4 (antibody, V domains shown, also called VH6 + VL5) VH: QVQLVQSGAEVKKPGSSVKVSCKASGYSFTNYWMNWVKQAPGQGLEWIGMIHPSDTETRLNQNFKDKATLTVDKSTSTAYMELSSLRSEDTAVYYCARGEGLGAARSVSMDYWGQGTLVTVSS VL: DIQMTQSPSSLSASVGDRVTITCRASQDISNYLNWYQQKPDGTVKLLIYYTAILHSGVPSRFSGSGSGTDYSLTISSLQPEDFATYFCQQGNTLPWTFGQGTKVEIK
**A:** 93.1

# credit: patent US20240109974A1
